Reference source for all entries: patent US10344077

Target: RNP (ribonucleoprotein)
Experiment: AtheNA, Ab 12.5 ug/ml
Observable: Athena reading (relative luminescence units)
Numbers only.

Enquiry: Data request, read-out Athena reading (relative luminescence units), for CH239_4A/293i (antibody, from a related filing, V domains shown) VH: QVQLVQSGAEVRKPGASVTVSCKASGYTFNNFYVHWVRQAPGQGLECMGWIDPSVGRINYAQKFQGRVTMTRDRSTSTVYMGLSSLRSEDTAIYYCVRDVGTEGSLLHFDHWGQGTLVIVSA VL: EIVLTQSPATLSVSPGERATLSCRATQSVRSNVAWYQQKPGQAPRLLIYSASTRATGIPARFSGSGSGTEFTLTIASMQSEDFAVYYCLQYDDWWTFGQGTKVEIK
Return: 85
